Assign Affinity for the α1-subunit of the GABAA receptor, % inhibition to each entry below.
- Test system: α1-GABAA receptor
- experiment notes: Ligand-binding assay, radiolabeled flumazenil competition, cerebellum membranes
- Parameters: species or system rat
- run parameters: 10^−5M; rat cerebellum membranes, radiolabeled flumazenil 1 nM
Quick note: give the figure in %, leave out the unit.

Qu. For the molecule Cc1cccc2c1c(=O)cc(-c1ccccc1)n2CC(=O)N1CCOCC1 , what Affinity for the α1-subunit of the GABAA receptor, % inhibition is on record?
Ans. 99.5

Qu. For the molecule Cc1ccc2c(=O)c(-c3ccccc3)cn(CC(=O)N3CC(C)OC(C)C3)c2c1 (centres unmarked) , what Affinity for the α1-subunit of the GABAA receptor, % inhibition is on record?
Ans. 86.2

Qu. For the molecule Cc1cccc2c1c(=O)cc(-c1ccccc1)n2CC(=O)N1CCCC1 , what Affinity for the α1-subunit of the GABAA receptor, % inhibition is on record?
Ans. 99.9

Qu. For the molecule CCN(CC)C(=O)Cn1cc(-c2ccccc2)c(=O)c2ccc(C)cc21 , what Affinity for the α1-subunit of the GABAA receptor, % inhibition is on record?
Ans. 91.4

Qu. For the molecule CCCN(CCC)C(=O)Cn1cc(-c2ccccc2)c(=O)c2ccc(C)cc21 , what Affinity for the α1-subunit of the GABAA receptor, % inhibition is on record?
Ans. 98.4

Qu. For the molecule C=CCN(CC=C)C(=O)Cn1cc(-c2ccccc2)c(=O)c2ccc(C)cc21 , what Affinity for the α1-subunit of the GABAA receptor, % inhibition is on record?
Ans. 99.0

Qu. For the molecule Cc1ccc2c(=O)c(-c3ccccc3)cn(CC(=O)c3cccs3)c2c1 , what Affinity for the α1-subunit of the GABAA receptor, % inhibition is on record?
Ans. 97.7

Qu. For the molecule Cc1ccc2c(=O)c(-c3ccccc3)cn(CC(=O)N3C(C)C=CC3C)c2c1 (centres unmarked) , what Affinity for the α1-subunit of the GABAA receptor, % inhibition is on record?
Ans. 97.0

Qu. For the molecule Cc1ccc2c(=O)c(-c3ccccc3)cn(CC(=O)N3CCCC3)c2c1 , what Affinity for the α1-subunit of the GABAA receptor, % inhibition is on record?
Ans. 86.2

Qu. For the molecule CCCN(CCC)C(=O)Cn1cc(-c2ccccc2)c(=O)c2ccc(Br)cc21 , what Affinity for the α1-subunit of the GABAA receptor, % inhibition is on record?
Ans. 99.8

Qu. For the molecule Cc1ccc(-c2nc3ccc(C)cn3c2CC(=O)N(C)C)cc1 [zolpidem, reference compound] , what Affinity for the α1-subunit of the GABAA receptor, % inhibition is on record?
Ans. 99.8

Qu. For the molecule CCCN(CCC)C(=O)Cn1cc(-c2ccc(OC)cc2)c(=O)c2ccc(C)cc21 , what Affinity for the α1-subunit of the GABAA receptor, % inhibition is on record?
Ans. 95.9

Qu. For the molecule C=CCN(CC=C)C(=O)Cn1cc(-c2ccc(OC)cc2)c(=O)c2ccc(C)cc21 , what Affinity for the α1-subunit of the GABAA receptor, % inhibition is on record?
Ans. 90.7

Qu. For the molecule Cc1ccc2c(=O)c(-c3ccccc3)cn(CC(=O)c3ccccn3)c2c1 , what Affinity for the α1-subunit of the GABAA receptor, % inhibition is on record?
Ans. 97.9

Qu. For the molecule Cc1ccc2c(=O)c(-c3ccccc3)cn(CC(=O)N3CCCCC3)c2c1 , what Affinity for the α1-subunit of the GABAA receptor, % inhibition is on record?
Ans. 87.3

Qu. For the molecule CCCN(CC1CC1)C(=O)Cn1cc(-c2ccccc2)c(=O)c2ccc(C)cc21 , what Affinity for the α1-subunit of the GABAA receptor, % inhibition is on record?
Ans. 98.8

Qu. For the molecule Cc1ccc2c(=O)c(-c3ccccc3)cn(CC(=O)c3oc(C)nc3C)c2c1 , what Affinity for the α1-subunit of the GABAA receptor, % inhibition is on record?
Ans. 97.0

Qu. For the molecule C=CCN(CC=C)C(=O)Cn1cc(-c2ccccc2)c(=O)c2ccc(Br)cc21 , what Affinity for the α1-subunit of the GABAA receptor, % inhibition is on record?
Ans. 99.7

Qu. For the molecule CCCN(CCC)C(=O)Cn1cc(-c2ccccc2)c(=O)c2ccccc21 , what Affinity for the α1-subunit of the GABAA receptor, % inhibition is on record?
Ans. 88.1

Qu. For the molecule COc1ccc(NC(=O)Cn2cc(-c3ccc(OC)cc3)c(=O)c3ccc(C)cc32)cc1 , what Affinity for the α1-subunit of the GABAA receptor, % inhibition is on record?
Ans. 78.5
